Assay: label from the status in PepcDB records;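 note: failed if final PepcDB status was selected cloned or expressed and not failed if soluble or beyond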
Measured property: protein production

IN: Requested read-out: protein production. Entry: MSDLGAYIHAVETASSASALREAVIQLAQQNSTAAIPTLIAVLGYNNPAAAQAAVEGLIALGDAVVEPLLAQLDGYNYGARAYGVRVLGSIGHPAALQVLLAAAQSDFAPSVRRAATKALGTLRWQLIPEETVREAQLKEALAVLQRNSKAADWAVRYAVGVALDYLHQQAAARGIREAVRSLLNHLSDRDPDIVVRSRCQLALQRDSLSMHT
OUT: failed

IN: Requested read-out: protein production. Entry: MEDLEETLFEEFENYSYDLDYYSLESDLEEKVQLGVVHWVSLVLYCLAFVLGIPGNAIVIWFTGFKWKKTVTTLWFLNLAIADFIFLLFLPLYISYVAMNFHWPFGIWLCKANSFTAQLNMFASVFFLTVISLDHYIHLIHPVLSHRHRTLKNSLIVIIFIWLLASLIGGPALYFRDTVEFNNHTLCYNNFQKHDPDLTLIRHHVLTWVKFIIGYLFPLLTMSICYLCLIFKVKKRSILISSRHFWTILVVVVAFVVCWTPYHLFSIWELTIHHNSYSHHVMQAGIPLSTGLAFLNSCLNPILYVLISKKFQARFRSSVAEILKYTLWEVSCSGTVSEQLRNSETKNLCLLETAQ
OUT: failed

IN: Requested read-out: protein production. Entry: MREDAARDRMRGFGFHEHVISESIKELLEVYEDQWFLIEDDSYGPLLAICLEKQEEKEKQLAEVQANQLPENHNEEMAEEEQPNQLAVEIHEEEKEQEQDMHIEYGRDQADELSINSEAVNDPSPAAIHLGEASSDYAQSSVRGVENLHCGWLIDEEETDPEEETDPEEKETEPEDPKEKETEPEEDSDGDDDEIIQLTPEPLCEELQELLREVRGQKRRKKEMRWDK
OUT: failed

IN: Requested read-out: protein production. Entry: MNSDPTRERILHGLITLYILKELVKRPMHGYELQKSMFETTGQALPQGSIYILLKTMKERGFVISESSVNEKGQQLTVYHITDAGKKFLCDHSQALQLARKIIDDLLSTVDIIENRN
OUT: not failed

IN: Requested read-out: protein production. Entry: MGNGLAKCLIDGDTETFWHAKWQGGSDPLPYDIVIDMKQNIQIAQVELLPRGRGSNNPIKVVEFAASEDNVNWTPIGRFGFTNQDAALEYYVKSIKARYIRLTIPDDGGNSTVAAIRELDVKGTIINLEHHHHHH
OUT: failed

IN: Requested read-out: protein production. Entry: MRPDLSRVPGVLGEIARKRASEVAPYPLPEPPSVPSFKEALLRPGLSVIAEVKRQSPSEGLIREVDPVEAALAYARGGARAVSVLTEPHRFGGSLLDLKRVREAVDLPLLRKDFVVDPFMLEEARAFGASAALLIVALLGELTGAYLEEARRLGLEALVEVHTERELEIALEAGAEVLGINNRDLATLHINLETAPRLGRLARKRGFGGVLVAESGYSRKEELKALEGLFDAVLIGTSLMRAPDLEAALRELVG
OUT: not failed

IN: Requested read-out: protein production. Entry: MWSWDVECDTCAICRVQVMDACLRCQAENKQEDCVVVWGECNHSFHNCCMSLWVKQNNRCPLCQQDWVVQRIGK
OUT: not failed

IN: Requested read-out: protein production. Entry: KVDPSDFSDVLIAHTVMKPFPDAPTALYQIKAKGYETVLMTNHSRDLIQSNVINLDHEFDMIITAEDVQTYKPNQKFFDYVNDQLGNDVEKHVHVAVDEVKDLKPAQDAGWNVIKIDRKSEDAS
OUT: failed

Others:
IN: Requested read-out: protein production. Entry: MSILMLFGLATLRSATYGENEQLFTRQIVWDIAGFSLMFLVLFIKDRTIRNFSIILYVFSVVLLAALLVKGTPIGGSKRWFRVMGFSFQPSDFAKLSLIVLLPYLLEKRWFWRSFFLTVVPAVLIFLEPDLGTTLSVGLIWLFAVLASNVNKKPLVILLILVLVFLPVFFFFGLKDYQRARILSFLNPEEYGESYSYNVLQSIHAIGAGGLFGAGYMKGKANLMGYVPVSYTDFIVSVIGEEFGFIGIVFLLSLFGLLFFEVSRWILNVKDEYWEILMVSACGLIWFHVFENVSMNLGLLPVTGVPLPFISYGGTSTLVFSILVGLILKGIALARVEKKL
OUT: failed

IN: Requested read-out: protein production. Entry: MSPLALLFLTLFNSVLGLSILFPILGPLGRALGLTEVQVGLFSTGYALMQFLLSPYWGRRSERGRKPVLLVGILGFAASFLLFGVFALLGERGLVPPGLLFFLLLLARLLGGAFSSATLPTAQAYVADVTGRENRTAGMALLGAAFGLAVILGPALGAGLAALFGLLAPVFFSAGIALLNALFVYLVLPESRPRGQEAGARLSPFDPRVFPLLLLGLALNLSSVALEQTIAFYFQDRLLLGGVETAQKVGLALVLYGVVAVFVQGVLVRKTGWPPRVLLSLGLPLGILGFVLLVYAKTFWALALGLALQGAGQGLALPGVTAALSLAVGEGEQGLVAGLNSSAQALGRMLGPIVGTGLYRLAPEGPYVLGASLLLLALLFLPALFRRARL
OUT: failed

IN: Requested read-out: protein production. Entry: MVNILSLFTLAALWGGSFLFVRIAANPLGPAVLIEVRVAFAALTLLVVSFFLKKSLRFMSNIKHFLILGLFNSALPFLLFAYSAQVLNVSTLAVLNSTAPIWGAVIGAIWTRTRLSKDVIFGLILGMIGVSVLVGWEAINIGDEAIIPIITALIGAFSYGVATNYAKNAPSVEPFNNAHGSMWASVLLVLPLVPFMPVREEVTSDIIAAVFALGAVCTGLAYLLYFRLIKELGASSALTVTFIIPVFGILWGYLFLGETVGVNAIIGTILVVIGTMFVTGFASKFMSKKCV
OUT: failed

IN: Requested read-out: protein production. Entry: MGRVIVLGEVLLVGLRFVFVLLIYIFVWHVLRLMYLELGLAPAQSSRKRPVLVVLDAKNGGAKRGESYPLGENISIGRDNHNDIIINDSHVSARHAVITRQGREWKILDLDSTNGTYVNGLRLTGPHSLRPGDKISIGGVTFKVGWEDASRSPFPYRTGAAR
OUT: failed

IN: Requested read-out: protein production. Entry: MTDKKTTEKKETETAATFTEELTAVLEEIKEEPVKEKKKGEIVTIVNETDIQIGEREYRIVKNHRDAFDPERLGERFSEVLARYDYIVGDWGYEQLRLRGFFDTSNRRAAPDQRIDTLEDYLYEYCNFGCAYFVIERTGERKEKTTHRRRRHKKNNRSNAFVEEKSAPANKNSKPVIRTRKEENKKTTTPKQPSPKKSGKGFTIRQREELEHHHHHH
OUT: not failed
